# target-entity: T1, cyno PD-1^ECD-hFc protein (cyno monkey, UniProt B0LAJ3 25-167)
# T1 construct: Prepared by the method for Immunogen A; also called Cyno Monkey PD-1^ECD-hFc; cyno monkey PD-1-hFc; not shown: human IgG Fc fragment (hFc) and its junction to the ECD
# T1 sequence (B0LAJ3 entry or part of it limits assumed): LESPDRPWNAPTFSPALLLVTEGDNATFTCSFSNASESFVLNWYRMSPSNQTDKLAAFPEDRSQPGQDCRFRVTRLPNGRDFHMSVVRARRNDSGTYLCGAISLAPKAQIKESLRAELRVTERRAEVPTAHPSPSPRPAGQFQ
# experiment-notes: ELISA, coated cyno PD-1ECD-hFc; antibody 1 nM
experimental-endpoint: OD450 nm
Give a plain numeric answer without units written out.

Here is how some binders turned out for OD450 nm.
chimeric anti-PD-1 antibody 76G5B3 (antibody, V domains shown, Purified from hybridoma of Harbour H2L2 mice: human variable regions, rat constant regions) VH: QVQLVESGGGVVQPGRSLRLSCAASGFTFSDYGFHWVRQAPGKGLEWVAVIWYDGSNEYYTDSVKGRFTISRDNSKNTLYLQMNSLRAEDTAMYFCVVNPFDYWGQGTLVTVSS VL: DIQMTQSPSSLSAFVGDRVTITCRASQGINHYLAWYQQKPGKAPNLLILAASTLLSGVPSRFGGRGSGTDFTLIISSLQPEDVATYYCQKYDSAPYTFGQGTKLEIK = 1.4
chimeric anti-PD-1 antibody 32B5C7 (antibody, V domains shown, Purified from hybridoma of Harbour H2L2 mice: human variable regions, rat constant regions) VH: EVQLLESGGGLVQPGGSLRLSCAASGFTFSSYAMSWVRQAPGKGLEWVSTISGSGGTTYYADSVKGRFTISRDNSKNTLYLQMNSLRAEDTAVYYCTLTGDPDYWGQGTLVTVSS VL: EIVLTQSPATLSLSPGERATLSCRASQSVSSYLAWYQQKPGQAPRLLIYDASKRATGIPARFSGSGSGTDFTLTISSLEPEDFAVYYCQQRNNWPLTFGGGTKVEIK = 1.03
chimeric anti-PD-1 antibody 21G8F11 (antibody, V domains shown, Purified from hybridoma of Harbour H2L2 mice: human variable regions, rat constant regions) VH: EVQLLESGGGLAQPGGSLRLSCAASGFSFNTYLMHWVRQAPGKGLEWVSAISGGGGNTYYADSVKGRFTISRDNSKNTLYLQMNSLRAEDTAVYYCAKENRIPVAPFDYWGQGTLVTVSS VL: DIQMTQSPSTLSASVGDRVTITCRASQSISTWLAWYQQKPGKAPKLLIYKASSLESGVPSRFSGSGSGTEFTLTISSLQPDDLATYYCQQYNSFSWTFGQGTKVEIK = 2.45

Switching to the query record.
In: # OD450 nm lookup, item chimeric anti-PD-1 antibody 223G6B5 (antibody, V domains shown, Purified from hybridoma of Harbour H2L2 mice: human variable regions, rat constant regions) VH: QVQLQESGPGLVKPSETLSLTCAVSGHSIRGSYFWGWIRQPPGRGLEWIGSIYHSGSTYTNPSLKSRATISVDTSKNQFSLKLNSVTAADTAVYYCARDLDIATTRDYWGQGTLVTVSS VL: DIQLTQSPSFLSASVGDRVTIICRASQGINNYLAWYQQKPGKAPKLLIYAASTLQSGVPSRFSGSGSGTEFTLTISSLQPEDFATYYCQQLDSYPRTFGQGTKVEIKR
Out: 2.61
